Target or system: PARP (Homo sapiens, UniProt P09874)
Construct: endogenous in cells
Sequence (P09874 whole entry): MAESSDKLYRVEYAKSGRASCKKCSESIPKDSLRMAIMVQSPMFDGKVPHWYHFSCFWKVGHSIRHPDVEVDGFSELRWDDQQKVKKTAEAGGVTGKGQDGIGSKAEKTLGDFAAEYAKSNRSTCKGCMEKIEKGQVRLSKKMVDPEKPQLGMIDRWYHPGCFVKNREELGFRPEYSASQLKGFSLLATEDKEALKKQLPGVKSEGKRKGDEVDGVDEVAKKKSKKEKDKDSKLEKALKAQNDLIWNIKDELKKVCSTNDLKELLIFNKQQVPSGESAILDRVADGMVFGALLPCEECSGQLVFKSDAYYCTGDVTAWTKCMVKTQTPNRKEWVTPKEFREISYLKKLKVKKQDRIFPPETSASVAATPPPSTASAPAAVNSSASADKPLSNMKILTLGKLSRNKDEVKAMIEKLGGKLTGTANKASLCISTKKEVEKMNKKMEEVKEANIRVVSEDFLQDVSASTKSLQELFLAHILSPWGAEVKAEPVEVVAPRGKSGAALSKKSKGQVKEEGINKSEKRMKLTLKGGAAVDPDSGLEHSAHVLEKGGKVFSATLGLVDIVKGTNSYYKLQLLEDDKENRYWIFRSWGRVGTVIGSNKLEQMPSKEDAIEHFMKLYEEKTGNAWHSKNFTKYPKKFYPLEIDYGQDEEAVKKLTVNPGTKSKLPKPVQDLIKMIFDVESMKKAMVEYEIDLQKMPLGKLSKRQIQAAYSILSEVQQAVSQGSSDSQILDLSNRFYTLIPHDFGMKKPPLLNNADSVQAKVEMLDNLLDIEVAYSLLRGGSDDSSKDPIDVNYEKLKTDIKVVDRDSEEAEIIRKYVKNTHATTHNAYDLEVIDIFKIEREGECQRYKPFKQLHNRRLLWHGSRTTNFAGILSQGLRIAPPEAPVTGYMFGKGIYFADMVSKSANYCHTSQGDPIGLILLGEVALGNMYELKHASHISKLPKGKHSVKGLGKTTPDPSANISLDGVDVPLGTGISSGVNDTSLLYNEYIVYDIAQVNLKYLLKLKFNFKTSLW
Assay protocol: PARP activity in hydrogen peroxide-stimulated A549 cells, whole-cell based assay (3H-NAD+ incorporation)
Applied conditions: 15 min pretreatment (10 nM-300 nM), hydrogen peroxide-induced PARP activation, from dose-response curve
Description: Human alveolar epithelial cells (A549), an adenocarcinoma cell line with the alveolar type 2 phenotype were cultured in […] medium supplemented with 10% fetal bovine serum. […] Following incubation in the assay buffer (15 minutes at 37° C.), PARP activity was measured. […] The contents of the tubes were added to 6.5 mL ScintiSafe Plus scintillation liquid (Fisher Scientific) and radioactivity was determined using a liquid scintillation counter (Wallac, Gaithersburg, Md.). […]

| Molecule | EC50 / nM |
| --- | --- |
| O=c1[nH]c2c(c3ccccc13)Cc1c(CO)cccc1-2 [(I)(25)] | 290 |
